- Test system: A549
- method: Antiproliferative activity against human A549 cells harboring high ROR1 expression assessed as inhibition of cell growth incubated for 72 hrs by MTT assay
- Assay type: functional, cell-based
- cond: A549, 72 h
assay_readout: IC50 (µM)
Report the value in µM with no unit label.

According to the records, this molecule Cc1ccc(C(=O)Nc2cccc(N(C)C)c2)cc1C#Cc1cnc2cccnn12 displays IC50 of 27.5
